assay: Plasma protein binding, rat plasma; assay type: in vitro ADME; conditions: Sprague Dawley, pH 7.4, read-out: % PPB, R (converted)
property.name: fraction unbound
Reply briefly: the number, and no unit.

(Q) Would you mind telling me what fraction unbound value was observed for Cc1cc(C(=O)O)nc(N2CCC(COc3ccccc3C(F)(F)F)C2)n1 (racemic) [Compound (±)-44] ?
(A) 0.04

* * *

target: RBP4 (Homo sapiens (Human), UniProt P02753); assay: RBP4 SPA binding assay (displacement of 3H-retinol); settings: fixed 10 nM 3H-retinol; read-out: RBP4 SPA IC50
Would you kindly list IC50 for each of these molecules?
Write the answer as a number in nM, unit excluded.

(Q) Would you mind telling me what IC50 value was observed for Cc1cc(C(=O)NS(C)(=O)=O)nc(N2CCC(COc3ccccc3C(F)(F)F)C2)n1 (racemic) [(±)-99] ?
(A) 81

(Q) Next: Cc1cc(C(=O)O)nc(N2CCC(COc3cccc(Cl)c3C(F)(F)F)C2)n1 (racemic) [Compound (±)-86]
(A) 180

(Q) Next: Cc1cc(C(=O)O)nc(N2CC[C@H](COc3ccccc3C(F)(F)F)C2)n1 [Compound (S)-56]
(A) 150
